From: patent US4257941A

system: lawns; assay: Long-term action on lawns (Example 14); type: in vivo; conditions: 2.0 kg/ha; control 100
MEASURE: First cutting, growth height relative

Cc1ccccc1N1N=NC2C3CC(C4N=NC34)C21 (stereo not drawn); 69.5
c1cc2sncc2cc1N1N=NC2C3CC(C4N=NC34)C21 (stereo not drawn) [drawing 382]; 80.6
CC(=O)Nc1ccc(C)c(NS(=O)(=O)C(F)(F)F)c1 [S, reference compound]; 58.3

q: Which First cutting, growth height relative value belongs to Fc1ccc(N2N=NC3C4CC(C5N=NC45)C32)cc1 (stereo not drawn) ?
a: 41.7

q: Which First cutting, growth height relative value belongs to Brc1ccc(N2N=NC3C4CC(C5N=NC45)C32)cc1 (stereo not drawn) [drawing 380] ?
a: 61.1

q: Which First cutting, growth height relative value belongs to Clc1ccc(N2N=NC3C4CC(C5NNC45)C32)cc1 (stereo not drawn) [drawing 381] ?
a: 63.9

====

system: lawns; experiment: Long-term action on lawns (Example 14); format: in vivo; conditions: 1.0 kg/ha; control 100
MEASURE: First cutting, green weight relative
// no unit string in output, number only

// solved cases for First cutting, green weight relative follow
Brc1ccc(N2N=NC3C4CC(C5N=NC45)C32)cc1 (stereo not drawn) [drawing 380]; 69.1
CC(=O)Nc1ccc(C)c(NS(=O)(=O)C(F)(F)F)c1 [S, reference compound]; 65.2
Cc1ccccc1N1N=NC2C3CC(C4N=NC34)C21 (stereo not drawn); 72.2
Fc1ccc(N2N=NC3C4CC(C5N=NC45)C32)cc1 (stereo not drawn); 58.1
c1cc2sncc2cc1N1N=NC2C3CC(C4N=NC34)C21 (stereo not drawn) [drawing 382]; 76.8

Switching to the query record.
q: Which First cutting, green weight relative value belongs to Clc1ccc(N2N=NC3C4CC(C5NNC45)C32)cc1 (stereo not drawn) [drawing 381] ?
a: 60.3

====

Quick reference for Growth height among some molecules
test system: Arachis hypogaea; experiment: Growth-regulating action, postemergence, greenhouse (Example 35, Table 1); type: in vivo; details: 1.0 kg/ha
Answer by giving the amount and then stating its unit.

// solved cases for Growth height follow
c1cc2sncc2cc1N1C2C3CC(C4N=NC34)C21 (stereo not shown); 12 cm
CN(C)NC(=O)CCC(=O)O [drawing 437, reference compound]; 7 cm
Clc1ccc(N2C3C4CC(C5N=NC45)C32)cc1Cl (stereo not shown); 14 cm

Switching to the query record.
q: Which Growth height value belongs to FC(F)(F)c1cccc(N2C3C4CC(C5N=NC45)C32)c1 (stereo not shown) [drawing 434] ?
a: 7.5 cm

====

test system: Lamium spp.; assay: Herbicidal action (Example 25); format: in vivo; conditions: postemergence, 4.0 kg/ha
Quick reference for percentage damage among some molecules
Only the number, expressed in percentage damage, is required.

c1ccc(N2N=NC3C4CC(C5N=NC45)C32)cc1 (centres unmarked) [drawing 431]; 90
CN(C)C(=O)Nc1ccc(Oc2ccccc2)cc1 [drawing 427]; 85
CC(C)OC(=O)Nc1cccc(Cl)c1 [drawing 426]; 50

q: Which percentage damage value belongs to C=CCN(CC=C)C(=O)CCl [drawing 428] ?
a: 10

q: Which percentage damage value belongs to c1csc(N2N=NC3C4CC(C5N=NC45)C32)n1 (centres unmarked) [drawing 432] ?
a: 60

====

test system: Triticum aestivum; test: Growth height of young cereal plants (Example 11, Table A); assay type: in vivo; conditions: soil treatment, 1.0 kg/ha
Quick reference for Growth height among some molecules
Only the number, expressed in cm, is required.

Brc1ccccc1N1N=NC2C3CC(C4N=NC34)C21 (stereo not drawn) [drawing 365]; 12
c1cc2sncc2cc1N1N=NC2C3CC(C4N=NC34)C21 (stereo not drawn) [drawing 368]; 20
O=[N+]([O-])c1cccc(N2N=NC3C4CC(C5N=NC45)C32)c1 (stereo not drawn); 26

q: Which Growth height value belongs to C[N+](C)(C)CCCl.[Cl-] [CCC, reference compound] ?
a: 40

q: Which Growth height value belongs to Brc1cccc(N2N=NC3C4CC(C5N=NC45)C32)c1 (stereo not drawn) [drawing 366] ?
a: 20

q: Which Growth height value belongs to Clc1ccc(N2N=NC3C4CC(C5NNC45)C32)cc1 (stereo not drawn) [drawing 369] ?
a: 6

q: Which Growth height value belongs to Clc1ccc(N2N=NC3C4CC(C5N=NC45)C32)c(Cl)c1 (stereo not drawn) ?
a: 25

q: Which Growth height value belongs to FC(F)(F)c1ccc(Cl)c(N2N=NC3C4CC(C5N=NC45)C32)c1 (stereo not drawn) [drawing 361] ?
a: 15

q: Which Growth height value belongs to Clc1ccc(CN2N=NC3C4CC(C5N=NC45)C32)cc1 (stereo not drawn) ?
a: 40

====

Quick reference for percentage damage among some molecules
system: Cynodon dactylon; assay: Herbicidal action (Example 25); type: in vivo; conditions: preemergence, 2.0 kg/ha
Only the number, expressed in percentage damage, is required.

// solved cases for percentage damage follow
c1ccc(CN2N=NC3C4CC(C5N=NC45)C32)cc1 (centres unmarked) [drawing 412]; 80
c1ccc(N2N=NC3C4CC(C5N=NC45)C32)cc1 (centres unmarked) [drawing 410]; 70

q: Which percentage damage value belongs to Cc1ccc(N2N=NC3C4CC(C5N=NC45)C32)cc1 (centres unmarked) [drawing 413] ?
a: 83

q: Which percentage damage value belongs to O=S(=O)(c1ccccc1)N1C2C3CC(C4N=NC34)C21 (centres unmarked) [drawing 414] ?
a: 90

q: Which percentage damage value belongs to c1ccc(N2C3C4CC(C5N=NC45)C32)cc1 (centres unmarked) [drawing 411] ?
a: 65

====

test system: lawns; assay: Long-term action on lawns (Example 14); assay type: in vivo; conditions: 2.0 kg/ha; control 100
MEASURE: Second cutting, green weight relative
// no unit string in output, number only

Brc1ccc(N2N=NC3C4CC(C5N=NC45)C32)cc1 (stereo not drawn) [drawing 380]; 70.0

q: Which Second cutting, green weight relative value belongs to Cc1ccccc1N1N=NC2C3CC(C4N=NC34)C21 (stereo not drawn) ?
a: 80.1

q: Which Second cutting, green weight relative value belongs to Fc1ccc(N2N=NC3C4CC(C5N=NC45)C32)cc1 (stereo not drawn) ?
a: 37.8

q: Which Second cutting, green weight relative value belongs to Clc1ccc(N2N=NC3C4CC(C5NNC45)C32)cc1 (stereo not drawn) [drawing 381] ?
a: 60.7

q: Which Second cutting, green weight relative value belongs to c1cc2sncc2cc1N1N=NC2C3CC(C4N=NC34)C21 (stereo not drawn) [drawing 382] ?
a: 71.5

q: Which Second cutting, green weight relative value belongs to CC(=O)Nc1ccc(C)c(NS(=O)(=O)C(F)(F)F)c1 [S, reference compound] ?
a: 75.3

====

test system: Setaria faberii; assay: Herbicidal action (Example 25); format: in vivo; settings: preemergence, 2.0 kg/ha
Quick reference for percentage damage among some compounds
Only the number, expressed in percentage damage, is required.

// solved cases for percentage damage follow
c1ccc(N2N=NC3C4CC(C5N=NC45)C32)cc1 (centres unmarked) [drawing 415]; 97
c1ccc(CN2N=NC3C4CC(C5N=NC45)C32)cc1 (centres unmarked) [drawing 417]; 80
c1ccc(N2C3C4CC(C5N=NC45)C32)cc1 (centres unmarked) [drawing 416]; 59
O=S(=O)(c1ccccc1)N1C2C3CC(C4N=NC34)C21 (centres unmarked) [drawing 419]; 40

Switching to the query record.
q: Which percentage damage value belongs to Cc1ccc(N2N=NC3C4CC(C5N=NC45)C32)cc1 (centres unmarked) [drawing 418] ?
a: 55

====

Quick reference for percentage damage among some molecules
system: Lamium spp.; assay: Herbicidal action (Example 25); type: in vivo; details: preemergence, 2.0 kg/ha

c1csc(N2N=NC3C4CC(C5N=NC45)C32)n1 (centres unmarked) [drawing 432]; 95 percentage damage
c1ccc(N2N=NC3C4CC(C5N=NC45)C32)cc1 (centres unmarked) [drawing 431]; 95 percentage damage
CN(C)C(=O)Nc1ccc(Oc2ccccc2)cc1 [drawing 427]; 50 percentage damage
CC(C)OC(=O)Nc1cccc(Cl)c1 [drawing 426]; 72 percentage damage

Switching to the query record.
q: Which percentage damage value belongs to C=CCN(CC=C)C(=O)CCl [drawing 428] ?
a: 25 percentage damage

====

test system: lawns; test: Long-term action on lawns (Example 14); format: in vivo; conditions: 4.0 kg/ha
Quick reference for Second cutting, green weight among some compounds
Only the number, expressed in g, is required.

// solved cases for Second cutting, green weight follow
Brc1ccc(N2N=NC3C4CC(C5N=NC45)C32)cc1 (stereo not drawn) [drawing 380]; 13.2
c1cc2sncc2cc1N1N=NC2C3CC(C4N=NC34)C21 (stereo not drawn) [drawing 382]; 16.8
CC(=O)Nc1ccc(C)c(NS(=O)(=O)C(F)(F)F)c1 [S, reference compound]; 9.6

q: Which Second cutting, green weight value belongs to Fc1ccc(N2N=NC3C4CC(C5N=NC45)C32)cc1 (stereo not drawn) ?
a: 7.1

q: Which Second cutting, green weight value belongs to Cc1ccccc1N1N=NC2C3CC(C4N=NC34)C21 (stereo not drawn) ?
a: 15.3

q: Which Second cutting, green weight value belongs to Clc1ccc(N2N=NC3C4CC(C5NNC45)C32)cc1 (stereo not drawn) [drawing 381] ?
a: 10.2
